Literature-derived pKi for Peptidyl-prolyl cis-trans isomerase FKBP1A (Homo sapiens, UniProt P62942) follows.
pKi: −log10 of the molar value.
measurement-label: pKi

{"compound": "COc1ccc(CCCOC(=O)C2CCCCN2C(=O)NC23CC4CC(CC(C4)C2)C3)cc1OC (stereo not drawn)", "test-system": "Peptidyl-prolyl cis-trans isomerase FKBP1A (Homo sapiens, UniProt P62942)", "observed-result": 7.49}
{"compound": "O=C(OCCCc1cccnc1)C1CCCN1C(=S)NC1CCCCC1 (stereo not drawn)", "test-system": "Peptidyl-prolyl cis-trans isomerase FKBP1A (Homo sapiens, UniProt P62942)", "observed-result": 6.88}
{"compound": "COc1cc2c(c(OC)c1)C1C3CCCC(C(=O)N1CC2)N3C(=O)N(c1ccccc1)c1ccccc1 (stereo not drawn)", "test-system": "Peptidyl-prolyl cis-trans isomerase FKBP1A (Homo sapiens, UniProt P62942)", "observed-result": 5.57}
{"compound": "COc1cc2c(c(OC)c1)C1C3CCCC(C(=O)N1CC2)N3C(=O)Cc1ccc(Cl)cc1 (stereo not drawn)", "test-system": "Peptidyl-prolyl cis-trans isomerase FKBP1A (Homo sapiens, UniProt P62942)", "observed-result": 5.51}

[a] COc1cc2c(c(OC)c1)C1C3CCCC(C(=O)N1CC2)N3C(=O)C(=O)c1ccccc1 (stereo not drawn)
[b] CC[C@H](NC(=O)[C@@H]1CCCCN1C(=O)[C@H](c1cc(OC)c(OC)c(OC)c1)C1CCCCC1)C(N)=O
Returns the identifier with the smallest measured pKi among a and b . Please reply using the label of the selected record.
b
